# Study System: cathepsin D (Homo sapiens)
# Sequence (P07339 65-412): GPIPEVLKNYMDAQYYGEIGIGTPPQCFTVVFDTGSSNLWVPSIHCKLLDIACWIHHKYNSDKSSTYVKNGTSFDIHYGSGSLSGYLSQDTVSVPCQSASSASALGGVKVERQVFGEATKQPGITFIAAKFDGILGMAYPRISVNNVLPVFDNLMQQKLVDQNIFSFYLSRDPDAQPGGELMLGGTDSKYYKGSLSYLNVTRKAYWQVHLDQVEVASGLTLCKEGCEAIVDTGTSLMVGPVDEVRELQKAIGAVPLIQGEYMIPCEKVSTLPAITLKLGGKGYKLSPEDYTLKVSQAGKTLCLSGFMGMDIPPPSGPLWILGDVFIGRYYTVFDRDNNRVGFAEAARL
# Procedure Text: cathepsin D inhibition assay with fluorogenic substrate (tight-binding kinetics)
# Format: biochemical
Numbered stars: 1 amine (or outer) side, 2 acyl side, 3 side chain; on linkers, the order of the positions; unused ones are H or OH. Bridge positions count the residues as written; N and C are the ends. Square brackets hold non-standard residues; d marks the D form. Peptide text beside a SMILES is read from it. * marks the point of attachment. Ahppa(3S,4S) = O=C(C[C@H](O)[C@H](Cc1ccccc1)N[*:1])[*:2]; Butanoyl(3,3-Me2) = CC(C)(C)CC(=O)*; Isopropoxycarbonyl = CC(C)OC(=O)*; CH2CH2 = C(C[*:2])[*:1]
Threshold check on Ki: strictly below 2 nM is label 1; on or above 2 nM is label 0.

Compound	Assigned Class
CC(C)[C@@H]1NC(=O)C[C@H](O)[C@H](Cc2ccccc2)NC(=O)[C@@H](NC(=O)[C@@H](NC(=O)CC(C)(C)C)C(C)C)CSCCCSC[C@@H](C(=O)NCC(N)=O)NC1=O	label 1
CCCCCNC(=O)[C@@H](NC(=O)C[C@H](O)[C@H](Cc1ccccc1)NC(=O)CCCC)C(C)C	label 0
CC(C)[C@@H]1NC(=O)C[C@H](O)[C@H](Cc2ccccc2)NC(=O)[C@@H](NC(=O)[C@@H](NC(=O)CC(C)(C)C)C(C)C)CCCCNC(=O)CC[C@@H](C(=O)NCC(N)=O)NC1=O ({Butanoyl(3,3-Me2)}-VK[Ahppa(3S,4S)]VEG-NH2; lactam 2-5)	label 1
CC(C)C[C@H](NC(=O)[C@H](C)NC(=O)C[C@H](O)[C@H](Cc1ccccc1)NC(=O)[C@@H](NC(=O)Cc1ccccn1)C(C)C)C(N)=O	label 0
CC(C)[C@@H]1NC(=O)C[C@H](O)[C@H](Cc2ccccc2)NC(=O)[C@@H](NC(=O)[C@@H](NC(=O)CC(C)(C)C)C(C)C)CSCCSC[C@@H](C(=O)NCC(N)=O)NC1=O ({Butanoyl(3,3-Me2)}-VC[Ahppa(3S,4S)]VCG-NH2; linker 2-5 via CH2CH2)	label 1
CC(C)C[C@H](NC(=O)[C@@H](NC(=O)C[C@H](O)[C@@H]1CCCCNC(=O)C[C@H](NC(=O)CC(C)(C)C)C(=O)N[C@@H](C(C)C)C(=O)N1)C(C)C)C(=O)NCC(N)=O	label 0
CC(C)[C@@H]1NC(=O)C[C@H](O)[C@H](Cc2ccccc2)NC(=O)[C@@H](NC(=O)[C@@H](NC(=O)CC(C)(C)C)C(C)C)CCC(=O)NCCCC[C@@H](C(=O)NCC(N)=O)NC1=O ({Butanoyl(3,3-Me2)}-VE[Ahppa(3S,4S)]VKG-NH2; lactam 2-5)	label 0
CC(C)C[C@H](NC(=O)[C@@H](NC(=O)C[C@H](O)[C@@H]1CCCCNC(=O)CC[C@H](NC(=O)CC(C)(C)C)C(=O)N[C@@H](C(C)C)C(=O)N1)C(C)C)C(=O)NCC(N)=O [drawing 29]	label 1

I wonder whether `CC(C)[C@@H]1NC(=O)C[C@H](O)[C@H](Cc2ccccc2)NC(=O)[C@@H](NC(=O)[C@@H](NC(=O)CC(C)(C)C)C(C)C)CSCCCCSC[C@@H](C(=O)NCC(N)=O)NC1=O` has Ki below 2 nM. Can you tell?
label 1

I wonder whether CC(C)C[C@H](NC(=O)[C@@H](NC(=O)C[C@H](O)[C@H](Cc1ccccc1)NC(=O)[C@H](CC(=O)O)NC(=O)[C@@H](NC(=O)CC(C)(C)C)C(C)C)C(C)C)C(=O)NCC(N)=O [(10), Tha--Val--Asp--Pst--Val--Leu--Gly--NH2] ({Butanoyl(3,3-Me2)}-VD[Ahppa(3S,4S)]VLG-NH2) has Ki below 2 nM. Can you tell?
label 0

I wonder whether CC(C)[C@@H]1NC(=O)C[C@H](O)[C@H](Cc2ccccc2)NC(=O)[C@@H](NC(=O)[C@@H](NC(=O)CC(C)(C)C)C(C)C)CSSC[C@@H](C(=O)NCC(N)=O)NC1=O ({Butanoyl(3,3-Me2)}-VC[Ahppa(3S,4S)]VCG-NH2; disulfide 2-5) has Ki below 2 nM. Can you tell?
label 0

I wonder whether CC(C)C[C@H](NC(=O)[C@H](C)NC(=O)C[C@H](O)[C@H](Cc1ccccc1)NC(=O)[C@@H](NC(=O)[C@@H](NC(=O)OC(C)C)C(C)C)C(C)C)C(N)=O (Isopropoxycarbonyl-VV[Ahppa(3S,4S)]AL-NH2) has Ki below 2 nM. Can you tell?
label 1
